- TARGET SYSTEM: human Farnesoid X Receptor (FXR) ligand binding domain (GST-FXR LBD) (Homo sapiens)
- Construct: purchased Invitrogen
- Sequence (Q96RI1 193-472 isoform Q96RI1-2): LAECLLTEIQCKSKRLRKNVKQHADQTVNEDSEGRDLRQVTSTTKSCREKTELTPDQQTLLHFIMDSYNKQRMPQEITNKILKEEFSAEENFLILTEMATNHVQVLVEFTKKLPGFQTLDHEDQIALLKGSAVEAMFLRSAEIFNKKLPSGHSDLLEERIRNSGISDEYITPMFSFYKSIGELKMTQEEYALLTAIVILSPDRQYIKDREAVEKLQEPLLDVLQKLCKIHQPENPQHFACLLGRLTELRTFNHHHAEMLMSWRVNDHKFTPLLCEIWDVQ
- METHOD NOTES: Human GST-FXR LBD co-activator interaction assay (HTRF)
- Type: biochemical
- TEST CONTEXT: GST-FXR LBD / biotin-SRC-1 peptide FRET; response relative to GW4064; read-out: FXR Co-activator interaction assay (EC50)
// classify(record): look up EC50 in ranges small value (below 5 nM), mid value (5 nM to below 40 nM), large value (40 nM or more)

Use these answered entries as a reference point.
{"columns": ["COMPOUND", "CLASS LABEL"],
 "data": [
  ["COC(=O)c1cnc(N2C3CC[C@H]2CC(OCc2c(-c4ccccc4OC(F)F)noc2C2CC2)C3)cc1C (some centres unmarked)", "mid value"],
  ["Cc1cc(C(=O)O)nc(N2C3CC[C@H]2CC(OCc2c(-c4cccc(F)c4F)noc2C2CC2)C3)n1 (some centres unmarked)", "large value"],
  ["Cc1cccc(C)c1-c1noc(C2CC2)c1COC1CC2CC[C@@H](C1)N2c1ccc(C(=O)O)c(C)n1 (some centres unmarked)", "large value"],
  ["Cc1c(N2C3CC[C@H]2CC(OCc2c(-c4ccccc4Cl)noc2C2CC2)C3)ccc2oc(C(=O)O)cc12 (some centres unmarked)", "small value"],
  ["Cc1cc(C(=O)O)nc(N2C3CC[C@H]2C[C@H](OCc2c(C4CCCCC4C(F)(F)F)noc2C2CC2)C3)n1 (some centres unmarked)", "large value"]
]}

Hi there! Could you help me figure out the category for O=C(O)c1cccc2nc(N3C4CC[C@H]3CC(OCc3c(-c5ccccc5OC(F)(F)F)noc3C3CC3)C4)ccc12 (some centres unmarked) please?
small value

Which EC50 category applies to `COC(=O)c1cc(F)c2nc(N3C4CC[C@H]3C[C@H](OCc3c(-c5c(F)cccc5F)noc3C3CC3)C4)sc2c1` here?
mid value

Class (by measured EC50) for `COc1cc(C(=O)O)cc2sc(N3[C@@H]4CC[C@H]3C[C@@H](OCc3c(-c5cccc(F)c5)noc3C3CC3)C4)nc12`
mid value

Where would COc1cc(C(=O)O)cc2sc(N3C4CC[C@H]3CC(OCc3c(-c5ccccc5OC(F)(F)F)noc3C3CC3)C4)nc12 (some centres unmarked) land among the classes by reported EC50?
small value

Consider COC(=O)c1cc(Br)c2nc(N3C4CC[C@H]3CC(OCc3c(-c5ccccc5OC(F)(F)F)noc3C3CC3)C4)sc2c1 (some centres unmarked) . To which EC50 class does it belong?
mid value

Place this compound in its band: O=C(O)c1cn2ccc(N3C4CCC3CC(OCc3c(-c5ccccc5OC(F)(F)F)noc3C3CC3)C4)cc2n1 (centres unmarked)
mid value

For this compound, which bin applies? `COC(=O)c1cnc(N2C3CC[C@H]2C[C@H](OCc2c(-c4ccccc4OC(F)(F)F)noc2C2CC2)C3)nc1C(F)(F)F`
large value

---

- TARGET SYSTEM: human Farnesoid X Receptor (FXR) ligand binding domain (GST-FXR LBD) (Homo sapiens)
- Construct: purchased Invitrogen
- METHOD NOTES: Human GST-FXR LBD co-activator interaction assay (HTRF)
- Format: biochemical
READOUT: pEC50
pEC50 is defined as minus the log10 of a concentration measured in mol/L.

May I ask what pEC50 has been recorded for Cc1cc(C(=O)O)cnc1N1C2CC[C@H]1C[C@H](OCc1c(-c3ccccc3OC(F)(F)F)noc1C1CC1)C2 [Example 19-4B] ?
8.30
